B1: HDAC6 (parent)
chain: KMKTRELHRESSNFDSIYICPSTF

variants of: B1; assay: protein stability index of a GFP-peptide fusion (GPS, HEK-293T) (PSI 1-6); higher = more stable; conditions: c terminus: a fixed tail appended;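 further: lentivirally expressed fusions sorted by FACS into six bins by GFP to DsRed ratio, PSI derived from sequencing read proportions per bin multiplied by bin number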
Each entry below carries its reported protein stability index.
observedProperty: protein stability index

• KMKTRELHREWSNFDSIYICPSTF [S11W] = 2.85
• KMKTRELHRESSNFDSIYIAPSTF [C20A] = 2.86
• KMKTRELHRESSNFDSIYIRPSTF [C20R] = 2.61
• KMKTRELHRESVNFDSIYICPSTF [S12V] = 2.38
• KMVTRELHRESSNFDSIYICPSTF [K3V] = 2.3
• KMKTRELHRESSNADSIYICPSTF [F14A] = 3.84
• KMKTRELHRESSNFDSIYICCSTF [P21C] = 2.71
• KMKTRELHRESSNFDSKYICPSTF [I17K] = 3.31
• KMKTRELHRESSNFDSIYICPSTM [F24M] = 2.65
• EMKTRELHRESSNFDSIYICPSTF [K1E] = 2.84
• KMKTRELHRESSNFDSIYICPSTR [F24R] = 2.98
• KMKTRELHRKSSNFDSIYICPSTF [E10K] = 2.71
• KMKTRELDRESSNFDSIYICPSTF [H8D] = 2.22
• KGKTRELHRESSNFDSIYICPSTF [M2G] = 2.33
• KMKTRELHWESSNFDSIYICPSTF [R9W] = 1.78
• KMKTRELHRESSNFCSIYICPSTF [D15C] = 2.82
• KMKTRELHNESSNFDSIYICPSTF [R9N] = 2.4
• KMKTRELHRECSNFDSIYICPSTF [S11C] = 1.75
• KMKTRELHRESSNFDSIYECPSTF [I19E] = 3.81
• KMKTRELHRESSNYDSIYICPSTF [F14Y] = 1.78
• KMKTRESHRESSNFDSIYICPSTF [L7S] = 3.05
• KMKTTELHRESSNFDSIYICPSTF [R5T] = 2.15
• KMKTRELHRESSNFDSIYDCPSTF [I19D] = 3.44
• KMKTRELHRESSNFASIYICPSTF [D15A] = 2
• RMKTRELHRESSNFDSIYICPSTF [K1R] = 1.38
• KMKTRELHRESSNWDSIYICPSTF [F14W] = 2.01
• KMKTREDHRESSNFDSIYICPSTF [L7D] = 2.73
• KMKTRELHRESSNFQSIYICPSTF [D15Q] = 1.96
• KMKTRELHRESSNFDSIYICPQTF [S22Q] = 1.78
• KMKTRELHRESSNFDSIYICPPTF [S22P] = 2.65
• KMKTRELHRESSNFDSIYICPSTT [F24T] = 3.65
• KMKTRELHRESSNFDSIYICPSTL [F24L] = 2.69
• KEKTRELHRESSNFDSIYICPSTF [M2E] = 2.6
• MMKTRELHRESSNFDSIYICPSTF [K1M] = 1.83
• KMMTRELHRESSNFDSIYICPSTF [K3M] = 1.5
• KMKTRELHRESSNFDSIYINPSTF [C20N] = 3.23
• KMKTRELHRESSGFDSIYICPSTF [N13G] = 2.68
• KMKERELHRESSNFDSIYICPSTF [T4E] = 1.99
• KMKTRELHRESSNFDSIYSCPSTF [I19S] = 2.35
• KMKSRELHRESSNFDSIYICPSTF [T4S] = 2.94
• KMKTRGLHRESSNFDSIYICPSTF [E6G] = 1.57
• KMKTRELHRESSNFDSIYICSSTF [P21S] = 1.74
• KMKTRELHRESSNFDSILICPSTF [Y18L] = 2.82
• KMKTRELHRESSNFGSIYICPSTF [D15G] = 1.69
• KMKTRELHRESSAFDSIYICPSTF [N13A] = 1.93
• KMKTRELHREGSNFDSIYICPSTF [S11G] = 1.96
